Value Type: melting point

>>> reported("Cc1ccnc(N2CCN(CCCCC3Sc4ccccc4NC3=S)CC2)c1 (stereo not given)")
"119 °C"
>>> reported("O=c1c(Cl)c(S(=O)C2CCCCC2)cnn1-c1ccccc1 (stereo not given)")
"128 to 130 °C"
>>> reported("Cc1cc(C)cc(-c2nc(N)sc2-c2ccncc2)c1")
"242 to 244 °C"
>>> reported("C=CCOc1ccc(C(=O)C=Cc2c(OC)cccc2OC)cc1")
"102 to 103 °C"
>>> reported("O=[N+]([O-])c1ccc2oc(CBr)cc2c1")
"96 to 98 °C"
>>> reported("CCCc1nc2ccnn2cc1Cc1ccc(-c2ccccc2C#N)cc1")
"154 °C"
>>> reported("N#CC1=C(c2cc3ccccc3s2)Nc2n[nH]cc2C1c1cccc2nonc12 (stereo not given)")
"220 °C"
>>> reported("O=C(O)c1ccc(OC(=O)c2ccc(O)c(C34CC5CC(CC(C5)C3)C4)c2)nc1")
"112 to 113 °C"
>>> reported("CCN1CC(NC(=O)Nc2cc(Cl)cc(Cl)c2)CN1CC")
"165 to 167 °C"
>>> reported("C=C(C)c1cc(-c2ccc(OCCNS(C)(=O)=O)cc2)n(-c2ccc(OC)nc2)n1")
"96 to 99 °C"

====

Item-by-item account of melting point
Value Type: melting point

>>> reported("COc1ccc(COc2cccc(OC)c2C(=O)/C=C(\\Nc2cnc(C#N)cn2)SC)cc1")
"128 to 135 °C"
>>> reported("CCC(=O)N1Cc2cc(OC)ccc2C(Cc2c(Cl)cncc2Cl)=N1")
"195 to 197 °C"
>>> reported("O=C(Nc1ccc([N+](=O)[O-])cc1)C(F)F")
"188 to 189 °C"
>>> reported("COc1cc(NC(=O)OC(C)(C)C)c(N)cc1C#Cc1ccccc1")
"158 °C"
>>> reported("O=C(CCl)c1ccc(Oc2ccc(C(=O)CCl)cc2)cc1")
"129 to 130 °C"
>>> reported("O=C(c1ccc2nonc2c1)N1CCCC1")
"97.8 to 99.3 °C"

====

Item-by-item account of melting point
Value Type: melting point

>>> reported("O=C(O)c1cc(-c2ccccc2)c(=O)n2c1-c1sccc1C2")
"> 300 °C"
>>> reported("CCCOC(Cc1ccc(OCCc2nc(-c3ccccc3)oc2C)c2ccccc12)C(=O)O (stereo not given)")
"103 to 105 °C"
>>> reported("COc1ccc2c(c1)S(=O)(=O)N(C(C)C)C2=O")
"188 °C"
>>> reported("Cn1ncnc1COc1nn2c(-c3cccnc3)nncc2c1-c1ccccc1F")
"164 to 166 °C"
>>> reported("O=C(NNC(=S)Nc1cccc(Br)c1)c1cccc([N+](=O)[O-])c1")
"163 to 165 °C"
>>> reported("O=C(O)c1cc(NC(=O)C(CS)Cc2cccnc2)cs1 (stereo not given)")
"115 to 118 °C"
>>> reported("O=C(c1ccc(Cl)cc1)C1(c2ccccc2Cl)CO1 (stereo not given)")
"65 to 66 °C"
>>> reported("Cc1c(NC(=O)c2ccc(-c3ccc(F)cc3)cc2)ccc2cc(CN3CCCC3CC(C)C)cnc12 (stereo not given)")
"193 to 196 °C"
>>> reported("Cc1ncccc1CN1CCC(=C2c3ccc(Cl)cc3CCc3cccnc32)CC1")
"81.4 to 87.2 °C"
>>> reported("CC(C)[C@H](NC(=O)c1ccccc1)C(=O)NCC(=O)O")
"190 to 191 °C"
>>> reported("O=C(CC1(O)CCC1)N[C@H]1CC[C@H](CCN2CCN(c3nccc4c3OCC4)CC2)CC1")
"155 °C"
>>> reported("CCCc1oc(-c2ccccc2)nc1COc1ccc(CO)cc1")
"79 to 80 °C"
>>> reported("COC1CCc2c(c(C)[nH]c(=O)c2C#N)C1 (stereo not given)")
"257 to 259 °C"
>>> reported("CC(C)=CCOc1ccc2c(=O)c(C)c(-c3ccccc3)oc2c1C(=O)C=Cc1cccs1")
"158 to 160 °C"
>>> reported("COc1ccsc1C1CCN(C[C@H](Cc2ccccc2)NC(=O)C2CCCCC2)CC1")
"92 to 94 °C"
>>> reported("CCOC(=O)c1cc(NS(=O)(=O)c2cccnc2)ccc1Oc1cncc(Cl)c1")
"120 to 122 °C"
>>> reported("COC(=O)CC(C(=O)c1ccc(SC)cc1)c1ccccc1 (stereo not given)")
"82.4 to 83 °C"
>>> reported("CCCCNC(=O)C(=O)[C@H](CC(C)C)NC(=O)[C@@H](NS(=O)(=O)c1ccc(F)cc1)C(C)C")
"108 to 110 °C"
>>> reported("CC(C)(c1ccccc1)N1CCC(=O)C(c2ccccc2)C1=O (stereo not given)")
"129 to 132 °C"
>>> reported("Cn1ncc(=O)[nH]c1=O")
"118 °C"
>>> reported("C[C@H](NC(=O)c1c[nH]c2ncc(-c3nn(C)c4cc(Cl)ccc34)nc12)C(C)(C)C#N")
"322 to 328 °C"
>>> reported("CN(CCN(C)[C@H]1CC[C@H](c2ccc3[nH]c(=O)oc3c2)CC1)c1ccccc1")
"240 to 243 °C"
>>> reported("NC(=O)C1=C(O)C(NC(=S)c2ccccc2)C2CC3Sc4c(Cl)ccc(O)c4C(=O)C3=C(O)C2(O)C1=O (stereo not given)")
"222 °C"
>>> reported("O=C(Nc1ccccc1)ONC1=Nc2ccc([N+](=O)[O-])cc2C(c2ccccc2Cl)=NC1")
"201 to 203 °C"
>>> reported("CC(=O)OCCc1sc2nc(=NS(=O)(=O)c3ccc(C)cc3)sn2c1-c1ccc2c(c1)CCCC2")
"126 to 127 °C"
>>> reported("CCc1nc2c(n1C(CC)CC)C(=O)N(C)C(C)N2c1ccc(Cl)cc1Cl (stereo not given)")
"135 to 136 °C"
>>> reported("CCCc1ccccc1Sc1c(C)n(CC(=O)O)c2ccc(NS(C)(=O)=O)cc12")
"160 °C"
>>> reported("CC12CCC3C(CCC4CC=CCC43C)C1CC=C2I (stereo not given)")
"71 to 72 °C"
>>> reported("CC(=O)Nc1ccc(CN(C)C2CCOCC2)cc1")
"105 to 106 °C"
>>> reported("CC(=O)NCCCCc1ccc(C(=O)C(C)Cl)cc1 (stereo not given)")
"66 to 67 °C"
>>> reported("COC(=S)NCc1cn(-c2ccc(N3CCC(=O)CC3)c(F)c2)nn1")
"145 to 147 °C"
>>> reported("CN=C=Nc1ccccc1N1CCOCC1")
"67 to 68 °C"
>>> reported("Cc1cn(CCC(=O)O)c(=O)[nH]c1=O")
"118 to 121 °C"
>>> reported("O=C1CCC(N2C(=O)c3cccc(CNC(=O)c4ccccc4)c3C2=O)C(=O)N1 (stereo not given)")
"227 to 229 °C"
>>> reported("O=CCCNC(=O)c1cc(Br)c(Br)[nH]1")
"160 to 163 °C"
>>> reported("COc1cc2c(Nc3cc(OC)c(OC)c(OC)c3)c(C#N)cnc2cc1F")
"215 to 217 °C"
>>> reported("O=C(C(=C1NCCCS1)[N+](=O)[O-])c1ccc([N+](=O)[O-])cc1")
"158 to 160 °C"
>>> reported("Cc1ccc(S(=O)(=O)OCCCn2c(=NC(=O)C(F)(F)F)sc3cc(OC(F)(F)F)ccc32)cc1")
"139 °C"
>>> reported("C=CCOC(=O)CC(C(C)=O)S(=O)(=O)c1ccccc1 (stereo not given)")
"62 to 64 °C"
>>> reported("CCN(CC)C(=O)n1ccc(S(=O)(=O)c2cc(Cl)cc(Cl)c2)n1")
"103 to 106 °C"
